Give self-splicing fitness (ln) for every item shown.
- method_description: self-splicing fitness, log relative to wild type (ln ratio); higher = more splicing; Tetrahymena group I intron in knt gene, E. coli kanamycin selection, DiMSum; sequences stand for … in CUCUCU…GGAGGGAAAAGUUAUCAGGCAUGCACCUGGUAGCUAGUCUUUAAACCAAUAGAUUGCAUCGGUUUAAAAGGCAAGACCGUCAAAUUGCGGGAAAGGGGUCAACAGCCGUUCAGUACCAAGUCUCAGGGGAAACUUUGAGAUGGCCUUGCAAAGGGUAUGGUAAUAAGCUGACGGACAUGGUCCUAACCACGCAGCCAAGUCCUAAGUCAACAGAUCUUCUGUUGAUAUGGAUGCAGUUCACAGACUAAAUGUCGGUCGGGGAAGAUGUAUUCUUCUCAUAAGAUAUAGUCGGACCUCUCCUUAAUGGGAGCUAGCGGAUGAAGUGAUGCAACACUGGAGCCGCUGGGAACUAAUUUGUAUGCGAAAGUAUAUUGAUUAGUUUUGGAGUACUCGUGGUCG;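 note: selection with 25 µg/mL kanamycin versus none on LB agar overnight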
- condition: 37 °C
Numbers only.

Field: example entries. Status: answers known.
>>> df
          residue_codes  quantitative_result
0  AGCGAGCAAUAUUACGGGGA                -1.22
1  CGAUAGCAAUAUUACGCCGC                 -1.3
2  GACCAGCAAUAUUACGAAGC               -0.511
3  GACCAGCAAUAUUACGAGUG                -0.33
4  UUAUAGCAAUAUUACGCGAA                -1.53

// input: 6 sequences below; output: self-splicing fitness (ln) for each
1. UAUAAGCAAUAUUACGCGCG
2. CCCAAGCAAUAUUACGACUG
3. ACCUAGCAAUAUUACGUGAC
4. CUAAAGCAAUAUUACGUGCA
5. GGACAGCAAUAUUACGCACC
6. AACCAGCAAUAUUACGGCGG

1: -0.655; 2: -3.49; 3: -0.892; 4: -1.91; 5: -1.8; 6: -0.164

====

- method_description: self-splicing fitness, log relative to wild type (ln ratio); higher = more splicing; Tetrahymena group I intron in knt gene, E. coli kanamycin selection, DiMSum; sequences stand for … in CUCUCU…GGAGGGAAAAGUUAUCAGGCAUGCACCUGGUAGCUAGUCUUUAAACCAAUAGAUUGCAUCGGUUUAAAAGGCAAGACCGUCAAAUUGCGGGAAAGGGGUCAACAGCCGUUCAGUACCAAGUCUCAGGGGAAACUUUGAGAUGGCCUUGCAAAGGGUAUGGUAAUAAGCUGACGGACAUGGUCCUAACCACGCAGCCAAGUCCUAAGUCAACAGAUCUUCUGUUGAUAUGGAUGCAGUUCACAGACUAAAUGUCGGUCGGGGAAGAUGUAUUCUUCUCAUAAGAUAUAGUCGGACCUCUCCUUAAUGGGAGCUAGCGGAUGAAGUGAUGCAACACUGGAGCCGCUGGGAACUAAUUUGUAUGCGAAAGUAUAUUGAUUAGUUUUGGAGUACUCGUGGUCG
- condition: 37 °C
Give measured self-splicing fitness (ln) for each item. Keep answers brief.

In [3]: df
Out[3]:
          residue_codes  result
0  UCACAGCAAUAUUACGUUAU   -2.75
1  CACGAGCAAUAUUACGUAGC   -3.31
2  UUUCAGCAAUAUUACGACCA   -1.36
3  UAGAAGCAAUAUUACGUAAG    -1.3
4  CUACAGCAAUAUUACGUACG    0.18
5  CGGGAGCAAUAUUACGAGGA   -2.53

For every listed record, write down its self-splicing fitness (ln).
1. AACCAGCAAUAUUACGAAUC
2. GAUAAGCAAUAUUACGUCUG
3. GAAGAGCAAUAUUACGUGAA
4. AUCCAGCAAUAUUACGGUUC
5. CUCUAGCAAUAUUACGACAG
6. GCAUAGCAAUAUUACGAAAA

[-0.882, -1.57, -2.03, -1.95, -0.569, 0.492]
